- target_under_test: T1, Biotin-labeled CD3 epsilon peptide antigen (human, also: biotin-labeled, site not given here)
- T1 construct: also called CD3 peptide
- T1 peptide: QDGNEEMGGITQTPY
- experimental_details: bead ELISA, IgG on biotinylated CD3 epsilon peptide, luminescence
Where no end group is shown, it is not given here.
readout_type: S/N ratio (CD3 peptide/non coating)
Give the value as a plain number.

Sample records with S/N ratio (CD3 peptide/non coating):
DXDU01_3#072 (antibody, V domains shown, Human IgG1; light chain GLS3000 (kappa); also called dBBDu122) VH: QVQLVESGGGLVQPGRSLRLSCAASGFTFSNAWMHWVRQAPGKGLEWVAQIKDRSQLYAAYYAPSVKGRFTISRDDSKNSIYLQMNSLKTEDTAVYYCHYVHYASASTVLGAYGVDAWGQGTTVTVSS VL: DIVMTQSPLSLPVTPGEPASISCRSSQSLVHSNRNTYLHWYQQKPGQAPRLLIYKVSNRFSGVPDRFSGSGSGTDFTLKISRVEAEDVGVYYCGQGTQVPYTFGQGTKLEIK = 148
DADU01_3#018 (antibody, V domains shown, Human IgG1; light chain GLS3000 (kappa); also called dBBDu123) VH: QVQLVESGGGLVQPGRSLRLSCAASGFTFSNAWMHWVRQAPGKGLEWVAQIKDRANSYNAYYAPSVKGRFTISRDDSKNSIYLQMNSLKTEDTAVYYCHYVHYSAASTLLPSFGVDAWGQGTTVTVSS VL: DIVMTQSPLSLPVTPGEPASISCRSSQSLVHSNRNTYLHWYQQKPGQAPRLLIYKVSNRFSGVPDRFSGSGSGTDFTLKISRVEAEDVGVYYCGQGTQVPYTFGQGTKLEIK = 149

[Q] I'd like to know its S/N ratio (CD3 peptide/non coating). The binder in question is DXDU01_3#051 (antibody, V domains shown, Human IgG1; light chain GLS3000 (kappa); also called dBBDu127) VH: QVQLVESGGGLVQPGRSLRLSCAASGFTFSNAWMHWVRQAPGKGLEWVAQIKDRGQQYNAYYAPSVKGRFTISRDDSKNSIYLQMNSLKTEDTAVYYCHYVHYASASSVLPGYGVDAWGQGTTVTVSS VL: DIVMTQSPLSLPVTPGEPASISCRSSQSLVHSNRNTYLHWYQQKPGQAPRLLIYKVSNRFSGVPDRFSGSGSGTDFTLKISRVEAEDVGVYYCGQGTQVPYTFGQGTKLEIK
[A] 145
